Value source: paper PMC7710685

Target: human α1β2γ2 GABAA receptors (Homo sapiens, UniProt P14867+P18507+P47870)
Sequence (P18507 40-475, one chain of several): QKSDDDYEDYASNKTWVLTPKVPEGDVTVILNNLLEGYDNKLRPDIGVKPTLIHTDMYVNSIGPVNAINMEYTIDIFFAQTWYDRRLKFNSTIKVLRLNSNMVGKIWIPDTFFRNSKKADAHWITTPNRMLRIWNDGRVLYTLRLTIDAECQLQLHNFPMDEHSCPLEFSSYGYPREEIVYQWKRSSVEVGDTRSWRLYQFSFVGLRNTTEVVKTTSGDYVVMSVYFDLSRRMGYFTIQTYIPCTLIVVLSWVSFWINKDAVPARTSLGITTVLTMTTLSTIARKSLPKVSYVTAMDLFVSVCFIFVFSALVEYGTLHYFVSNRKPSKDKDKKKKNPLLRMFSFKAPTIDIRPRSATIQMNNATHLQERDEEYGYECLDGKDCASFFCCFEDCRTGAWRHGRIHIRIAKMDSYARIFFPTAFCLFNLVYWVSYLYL
Assay: cell-based
Conditions: γ2 (α1β2γ2); percent of current through GABA EC10; Hill fit
ASSAY METRIC: Emax (%)
# output: bare number, implied unit %

Input line: Name the reported Emax value associated with the molecule CC(=O)N(C)c1cccc(-c2ccnc3c(C(=O)c4cccs4)cnn23)c1
Output line: 231

Input line: Consider the molecule shown here: CCN(C(C)=O)c1cccc(-c2ccnc3c(C#N)cnn23)c1 What is its recorded Emax?
Output line: 307

Input line: Query (molecule): CN1CCN(C(=O)O[C@H]2c3nccnc3C(=O)N2c2ccc(Cl)cn2)CC1 ; field requested: Emax
Output line: 356

Input line: What does the record list as Emax for CN1C(=O)CN=C(c2ccccc2)c2cc(Cl)ccc21 ?
Output line: 284

----------
Molecular target: human α1β2γ3 GABAA receptors (Homo sapiens, UniProt P14867+P47870+Q99928)
Sequence (Q99928 18-467): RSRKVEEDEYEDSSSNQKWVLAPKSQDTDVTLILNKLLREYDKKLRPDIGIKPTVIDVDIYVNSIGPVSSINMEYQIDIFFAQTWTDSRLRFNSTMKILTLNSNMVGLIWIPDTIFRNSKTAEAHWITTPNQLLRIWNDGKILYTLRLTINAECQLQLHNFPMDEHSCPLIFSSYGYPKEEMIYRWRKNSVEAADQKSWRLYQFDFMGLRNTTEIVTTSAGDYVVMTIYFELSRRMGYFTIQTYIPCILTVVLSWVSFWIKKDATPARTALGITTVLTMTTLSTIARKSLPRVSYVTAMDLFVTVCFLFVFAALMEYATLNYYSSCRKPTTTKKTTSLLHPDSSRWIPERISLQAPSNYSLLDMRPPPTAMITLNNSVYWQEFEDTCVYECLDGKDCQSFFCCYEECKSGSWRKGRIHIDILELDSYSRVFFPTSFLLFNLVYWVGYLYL
Sequence (P47870 25-512 limits assumed): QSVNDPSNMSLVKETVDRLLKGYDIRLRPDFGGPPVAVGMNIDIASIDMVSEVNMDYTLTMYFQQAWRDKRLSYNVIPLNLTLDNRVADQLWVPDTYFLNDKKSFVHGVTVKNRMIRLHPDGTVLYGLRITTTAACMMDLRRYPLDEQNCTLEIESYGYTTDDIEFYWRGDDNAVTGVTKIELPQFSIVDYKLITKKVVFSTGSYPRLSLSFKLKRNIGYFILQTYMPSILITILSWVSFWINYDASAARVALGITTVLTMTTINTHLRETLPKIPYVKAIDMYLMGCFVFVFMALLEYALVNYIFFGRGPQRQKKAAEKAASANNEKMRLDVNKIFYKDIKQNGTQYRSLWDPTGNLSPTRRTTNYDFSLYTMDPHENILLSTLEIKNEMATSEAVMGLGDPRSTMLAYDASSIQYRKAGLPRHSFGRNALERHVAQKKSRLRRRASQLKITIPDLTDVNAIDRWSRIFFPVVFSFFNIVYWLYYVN
Sequence (P14867 28-456): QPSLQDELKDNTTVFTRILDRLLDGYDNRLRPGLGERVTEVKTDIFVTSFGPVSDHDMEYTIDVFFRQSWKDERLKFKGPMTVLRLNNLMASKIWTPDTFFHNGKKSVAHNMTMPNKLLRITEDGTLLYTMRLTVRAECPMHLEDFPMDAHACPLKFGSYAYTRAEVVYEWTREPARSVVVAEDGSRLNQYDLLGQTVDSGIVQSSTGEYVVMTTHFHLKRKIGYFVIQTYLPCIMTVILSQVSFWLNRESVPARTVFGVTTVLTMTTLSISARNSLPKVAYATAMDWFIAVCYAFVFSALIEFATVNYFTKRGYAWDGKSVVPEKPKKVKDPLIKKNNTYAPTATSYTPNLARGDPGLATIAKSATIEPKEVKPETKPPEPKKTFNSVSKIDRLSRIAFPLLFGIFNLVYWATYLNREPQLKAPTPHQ
Settings: γ3 (α1β2γ3); 10 μM co-applied with GABA EC10; percentage potentiation of GABA EC10
Labelling: Modulation at 10 μM reported below 200% becomes rule met; at or above becomes rule not met.

Input line: Please state whether Modulation at 10 μM is below 200% for Cc1ccc(-c2nc3ccc(C)cn3c2CC(=O)N(C)C)cc1 [Zolpidem, zolpidem]
Output line: rule met

Input line: Dear colleague, could you confirm whether Modulation at 10 μM of CCN(C(C)=O)c1cccc(-c2ccnc3c(C#N)cnn23)c1 [Zaleplon, zaleplon] falls below 200%? Thanks.
Output line: rule not met

Input line: State whether 200% exceeds Modulation at 10 μM recorded for CN1C(=O)CN=C(c2ccccc2)c2cc(Cl)ccc21 [Diazepam, diazepam] .
Output line: rule met

Input line: Please determine if CC(=O)N(C)c1cccc(-c2ccnc3c(C(=O)c4cccs4)cnn23)c1 [Indiplon, indiplon] is below 200% in terms of Modulation at 10 μM.
Output line: rule not met

Input line: In plain terms, does CCCN(CCC)C(=O)Cc1c(-c2ccc(Cl)cc2)nc2ccc(Cl)cn12 [Alpidem, alpidem] come in under 200% for Modulation at 10 μM?
Output line: rule met

----------
Consider the following compounds; for each one, report its Emax.
Molecular target: human α1β2γ3 GABAA receptors (Homo sapiens, UniProt P14867+P47870+Q99928)
Assay: cell-based
Give the value, in units of %, as a plain number.

Input line: Any idea what Emax was measured for CN1C(=O)CN=C(c2ccccc2)c2cc(Cl)ccc21 [Diazepam, diazepam] ?
Output line: 168

Input line: Given the compound CC(=O)N(C)c1cccc(-c2ccnc3c(C(=O)c4cccs4)cnn23)c1 [Indiplon, indiplon] , what is its reported Emax?
Output line: 263

Input line: Fill in the blank: the reported Emax of CN1CCN(C(=O)O[C@H]2c3nccnc3C(=O)N2c2ccc(Cl)cn2)CC1 [Eszopiclone, eszopiclone] is ____.
Output line: 207

Input line: Could you tell me which Emax is on file for CCN(C(C)=O)c1cccc(-c2ccnc3c(C#N)cnn23)c1 [Zaleplon, zaleplon] ?
Output line: 277

----------
Molecular target: human α1β2γ2 GABAA receptors (Homo sapiens, UniProt P14867+P18507+P47870)
Conditions: γ2 (α1β2γ2); 10 μM co-applied with GABA EC10; percentage potentiation of GABA EC10
Is Modulation at 10 μM at least 300%? Then T. If not, F.

Input line: Does the reported Modulation at 10 μM for CC(=O)N(C)c1cccc(-c2ccnc3c(C(=O)c4cccs4)cnn23)c1 fall at or above the 300% mark?
Output line: F

Input line: Please indicate if the recorded Modulation at 10 μM for CCCN(CCC)C(=O)Cc1c(-c2ccc(Cl)cc2)nc2ccc(Cl)cn12 meets or exceeds 300%.
Output line: T

Input line: Does CN1C(=O)CN=C(c2ccccc2)c2cc(Cl)ccc21 have a reported Modulation at 10 μM of at least 300%?
Output line: F

Input line: Hello, I need to know if CN1CCN(C(=O)O[C@H]2c3nccnc3C(=O)N2c2ccc(Cl)cn2)CC1 has measured Modulation at 10 μM not below 300%. Thanks!
Output line: T

Input line: Does the molecule Cc1ccc(-c2nc3ccc(C)cn3c2CC(=O)N(C)C)cc1 have recorded Modulation at 10 μM that is 300% or more?
Output line: T

----------
Target: human α1β2γ1 GABAA receptors (Homo sapiens, UniProt P14867+P47870+Q8N1C3)
Sequence (Q8N1C3 36-465): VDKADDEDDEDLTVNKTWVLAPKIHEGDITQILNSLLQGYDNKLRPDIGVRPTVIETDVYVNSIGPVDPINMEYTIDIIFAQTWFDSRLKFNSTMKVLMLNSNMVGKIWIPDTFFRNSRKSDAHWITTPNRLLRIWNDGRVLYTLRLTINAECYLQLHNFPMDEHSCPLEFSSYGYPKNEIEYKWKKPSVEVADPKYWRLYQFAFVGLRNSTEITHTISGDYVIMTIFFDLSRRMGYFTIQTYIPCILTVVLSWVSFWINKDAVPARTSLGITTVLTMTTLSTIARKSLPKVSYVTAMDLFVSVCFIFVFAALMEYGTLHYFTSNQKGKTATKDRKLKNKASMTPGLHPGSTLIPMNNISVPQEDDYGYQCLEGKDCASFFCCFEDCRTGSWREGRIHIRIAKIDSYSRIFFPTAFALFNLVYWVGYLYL
Sequence (P47870 25-512 limits assumed): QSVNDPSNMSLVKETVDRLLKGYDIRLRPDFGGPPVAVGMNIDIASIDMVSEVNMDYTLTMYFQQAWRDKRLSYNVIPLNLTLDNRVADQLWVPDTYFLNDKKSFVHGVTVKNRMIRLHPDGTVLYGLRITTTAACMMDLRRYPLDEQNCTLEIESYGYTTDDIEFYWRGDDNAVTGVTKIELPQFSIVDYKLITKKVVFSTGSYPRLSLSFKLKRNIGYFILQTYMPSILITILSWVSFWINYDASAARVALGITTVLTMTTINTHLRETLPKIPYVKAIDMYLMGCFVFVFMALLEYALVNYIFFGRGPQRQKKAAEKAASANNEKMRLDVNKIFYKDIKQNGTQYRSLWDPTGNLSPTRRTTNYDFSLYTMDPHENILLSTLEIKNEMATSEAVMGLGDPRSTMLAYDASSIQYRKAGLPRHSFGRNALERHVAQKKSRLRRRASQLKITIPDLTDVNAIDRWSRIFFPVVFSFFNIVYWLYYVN
Sequence (P14867 28-456): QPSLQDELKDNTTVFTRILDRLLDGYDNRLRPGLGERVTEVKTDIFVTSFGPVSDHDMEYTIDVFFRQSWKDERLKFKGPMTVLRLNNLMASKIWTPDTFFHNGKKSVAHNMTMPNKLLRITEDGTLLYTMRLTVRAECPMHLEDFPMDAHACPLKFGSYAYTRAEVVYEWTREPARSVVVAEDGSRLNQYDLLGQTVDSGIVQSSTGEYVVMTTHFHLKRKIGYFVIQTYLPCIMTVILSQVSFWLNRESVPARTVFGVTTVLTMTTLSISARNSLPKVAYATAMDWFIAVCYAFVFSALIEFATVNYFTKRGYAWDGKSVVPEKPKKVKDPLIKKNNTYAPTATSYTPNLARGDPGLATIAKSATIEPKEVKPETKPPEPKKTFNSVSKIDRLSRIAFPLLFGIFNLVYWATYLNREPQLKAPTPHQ
Details: γ1 (α1β2γ1); 10 μM co-applied with GABA EC10; percentage potentiation of GABA EC10
ASSAY METRIC: Modulation at 10 μM (%)
Field format: number, assumed %, no unit text.

Input line: What value of Modulation at 10 μM has been reported for the following compound? CC(=O)N(C)c1cccc(-c2ccnc3c(C(=O)c4cccs4)cnn23)c1
Output line: 22

Input line: Any idea what its Modulation at 10 μM is? The compound is CN1C(=O)CN=C(c2ccccc2)c2cc(Cl)ccc21
Output line: 43

Input line: Would you kindly share the measured Modulation at 10 μM for CCCN(CCC)C(=O)Cc1c(-c2ccc(Cl)cc2)nc2ccc(Cl)cn12 ?
Output line: 40

Input line: // query Modulation at 10 μM value for entry CCN(C(C)=O)c1cccc(-c2ccnc3c(C#N)cnn23)c1
Output line: 126

Input line: Recorded Modulation at 10 μM of Cc1ccc(-c2nc3ccc(C)cn3c2CC(=O)N(C)C)cc1 , please.
Output line: 15

Input line: Entry under review: CN1CCN(C(=O)O[C@H]2c3nccnc3C(=O)N2c2ccc(Cl)cn2)CC1 . Reported Modulation at 10 μM?
Output line: 18
